Numbers sourced from ChEMBL document CHEMBL4840312.

- ASSAY_METHOD_TEXT: AUC (0 to 24 hrs) in Sprague-Dawley rat at 3 mg/kg, iv administered as single dose upto 24 hrs by LC-MS analysis
- Format: ADME, organism-based
- Set-up: route intravenous, dose 3 mg/kg, time <=24
- EXPERIMENTAL_CONDITIONS: in vivo
MEASURED_ENDPOINT: AUC(0-t) (µM·h)
Numeric only. Scale: µM·h

// recorded AUC(0-t) for `CC12CC3CC(C)(C1)CC(NC(=O)Nc1ccc(C(=O)N4CCCCC4)cc1)(C3)C2` : 1.83

----------
MEASURED_ENDPOINT: IC50 (nM)
Numeric only. Scale: nM

# IC50 measured on Bifunctional epoxide hydrolase 2 (Mus musculus, UniProt P34914) for item `CC12CC3CC(C)(C1)CC(NC(=O)/C=C/C(=O)NC1CCCCC1)(C3)C2` = 5520

# IC50 measured on Bifunctional epoxide hydrolase 2 (Mus musculus, UniProt P34914) for item `CC(C)CNC(=O)c1ccc(C(=O)NC23CC4CC(C)(CC(C)(C4)C2)C3)cc1` = 6540

# IC50 measured on Bifunctional epoxide hydrolase 2 (Mus musculus, UniProt P34914) for item CC(C)CNC(=O)c1ccc(NC(=O)NC2C3CC4CC(C3)CC2C4)cc1 (stereo not given) = 0.4

# IC50 measured on Bifunctional epoxide hydrolase 2 (Mus musculus, UniProt P34914) for item `CC12CC3CC(C)(C1)CC(NC(=O)CCCC(=O)NC1CCCCC1)(C3)C2` = 8.3

# IC50 measured on Bifunctional epoxide hydrolase 2 (Mus musculus, UniProt P34914) for item CC(C)CNC(=O)CCCC(=O)NC(C)C12CC3CC(CC(C3)C1)C2 (stereo not given) = 694

# IC50 measured on Bifunctional epoxide hydrolase 2 (Mus musculus, UniProt P34914) for item CC(C)CNC(=O)c1ccc(NC(=O)NC(C)C23CC4CC(CC(C4)C2)C3)cc1 (stereo not given) = 28.8

# IC50 measured on Bifunctional epoxide hydrolase 2 (Mus musculus, UniProt P34914) for item `CC12CC3CC(C)(C1)CC(NC(=O)CCCC(=O)N1CCCCC1)(C3)C2` = 5840

# IC50 measured on Bifunctional epoxide hydrolase 2 (Mus musculus, UniProt P34914) for item O=C(Nc1ccc(C(=O)N2CCCCC2)cc1)NC1C2CC3CC1CC(O)(C3)C2 (stereo not given) = 497

# IC50 measured on Bifunctional epoxide hydrolase 2 (Mus musculus, UniProt P34914) for item `CC(C)CNC(=O)/C=C/C(=O)NC12CC3CC(C)(CC(C)(C3)C1)C2` = 21100

# IC50 measured on Bifunctional epoxide hydrolase 2 (Mus musculus, UniProt P34914) for item CC(C)CNC(=O)CCCC(=O)NC1C2CC3CC1CC(O)(C3)C2 (stereo not given) = 106
